Source listed as patent US20090252727A1.

- MEASURED_TARGET: T1, cynomologous monkey glucagon receptor (cynomologous monkey, UniProt P47871 27-477 (human entry))
- T1 construct: Cloned receptor expressed in 293HEK cells; also called cyno GluR; cyno GlucR
- T1 chain: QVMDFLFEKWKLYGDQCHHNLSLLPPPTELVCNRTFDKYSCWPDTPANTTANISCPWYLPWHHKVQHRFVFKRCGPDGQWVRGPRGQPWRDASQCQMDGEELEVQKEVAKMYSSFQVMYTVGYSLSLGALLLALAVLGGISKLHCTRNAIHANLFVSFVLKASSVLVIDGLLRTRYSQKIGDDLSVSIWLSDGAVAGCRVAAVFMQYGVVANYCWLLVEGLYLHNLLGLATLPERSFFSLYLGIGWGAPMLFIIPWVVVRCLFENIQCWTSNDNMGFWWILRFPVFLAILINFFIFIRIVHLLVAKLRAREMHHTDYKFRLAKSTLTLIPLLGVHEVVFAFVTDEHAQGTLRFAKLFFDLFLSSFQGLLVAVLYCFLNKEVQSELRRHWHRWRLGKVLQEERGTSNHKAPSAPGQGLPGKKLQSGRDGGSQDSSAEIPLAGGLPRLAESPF
- ASSAY_COMMENT: competition with [125I]glucagon, SPA, membranes of 293HEK cells expressing the receptor
pKi: −log10 of the molar value.
Reported values of pKi for individual entries
QUANTITY: pKi

>>> meas_value("Fab fragment of antibody example 1 (Fab, V domains shown, Expressed in E. coli; Fab = VL+CL and VH+CH1 (Fc absent); also called Fab of Ab1; not shown: His tag) VH: QVQLQESGPGLVKPSETLSLTCTVSGDDITSGYWDWIRQPPGKGLEWIGYISYSGSTYYSPSLKSRVTISVDTSKNQFSLKLSSVTAADTAVYYCARPPGYYGFGPYALDYWGQGTLVTVSS VL: DIQMTQSPSSLSASVGDRVTITCSASSSVSYMHWYQQKPGKAPKLLIYTTSNLAHGVPSRFSGSGSGTDFTLTISSLQPEDFATYYCQWRSTLPPTFGGGTKVEIKR")
"> 7.30"
>>> meas_value("Antibody of example 7 (Ab7) (antibody, human IgG4 S228P, kappa, F234A L235A, V domains shown, Humanized full antibody with kappa light chain and modified human IgG4 Fc) VH: QVQLQESGPGLVKPSETLSLTCTVSGDDITSGYHEWIRQPPGKGLEWIGYISYSGSTSYSPSLKSRVTISVDTSKNQFSLKLSSVTAADTAVYYCARPPAYYGFGPYALDYWGQGTLVTVSS VL: DIQMTQSPSSLSASVGDRVTITCSASSSVSYIHWYQQKPGKAPKLLIYTTSYLAHGVPSRFSGSGSGTDFTLTISSLQPEDFATYYCQQRSTLPPTFGGGTKVEIKR")
"> 7.30"
>>> meas_value("Fab fragment of antibody example 7 (Fab, V domains shown, Expressed in E. coli; Fab = VL+CL and VH+CH1 (Fc absent); also called Fab of Ab7; not shown: His tag) VH: QVQLQESGPGLVKPSETLSLTCTVSGDDITSGYHEWIRQPPGKGLEWIGYISYSGSTSYSPSLKSRVTISVDTSKNQFSLKLSSVTAADTAVYYCARPPAYYGFGPYALDYWGQGTLVTVSS VL: DIQMTQSPSSLSASVGDRVTITCSASSSVSYIHWYQQKPGKAPKLLIYTTSYLAHGVPSRFSGSGSGTDFTLTISSLQPEDFATYYCQQRSTLPPTFGGGTKVEIKR")
"> 7.30"
